Cited source for all entries: ChEMBL document CHEMBL3872205

ASSAY DETAILS: AUC (0 to infinity) in Wistar rat kidney at 30 mg/kg, po by HPLC analysis
Type: ADME, organism-based
Parameters: dose 30 mg/kg, route oral, time infinity
ASSAY METRIC: AUC(0-inf) (ng·h/mL)
Write down the numeric answer in ng·h/mL and omit the unit.

Would you mind telling me what AUC(0-inf) value was observed for CCCCC1=NC2(CCCC2)C(=O)N1Cc1ccc2c(ccn2-c2ccccc2-c2nnn[nH]2)c1 ?
29400

----------
ASSAY DETAILS: Half life in Wistar rat plasma at 10 mg/kg, po by HPLC analysis
Type: ADME, organism-based
ASSAY METRIC: half-life (h)
Write down the numeric answer in h and omit the unit.

Would you mind telling me what half-life value was observed for CCCCC1=NC2(CCCC2)C(=O)N1Cc1ccc2c(ccn2-c2ccccc2-c2nnn[nH]2)c1 ?
9.93
